TARGET ENTITY: DYRK1A (rat)
PROTOCOL TEXT: radiometric filter-binding kinase assay
EXPERIMENTAL SETUP: ATP 100 µM; accession and sequence are those of the human protein
Answer each item with its documented IC50.
Numbers only, in nM.

SMILES INPUT	IC50 [nM]
CC(C)[C@H](CO)Nc1nc(Nc2cccc(Cl)c2)c2ncn(C(C)C)c2n1	300

QUERY: Read the entry `O=C(O[C@@H]1Cc2c(O)cc(O)cc2O[C@@H]1c1cc(O)c(O)c(O)c1)c1cc(O)c(O)c(O)c1` and write its reported IC50.
RESULT: 330

---

System: RPS6KA1 (rat)
PROTOCOL TEXT: radiometric filter-binding kinase assay
EXPERIMENTAL SETUP: compound 10.0 µM; ATP 100 µM; accession and sequence are those of the human protein
Decide using residual activity: a value greater than or equal to 90% is label 1, a smaller one is label 0.

SMILES INPUT	CLASS ASSIGNMENT
COC(=O)[C@@]1(OC)C[C@@H]2O[C@]1(C)n1c3ccccc3c3c4c(c5c6ccccc6n2c5c31)C(=O)N(C)C4	label 1

QUERY: Please indicate if the recorded residual activity for `O=C(O[C@@H]1Cc2c(O)cc(O)cc2O[C@@H]1c1cc(O)c(O)c(O)c1)c1cc(O)c(O)c(O)c1` meets or exceeds 90%.
RESULT: label 1

QUERY: Does the compound `CC[C@@H](CO)Nc1nc(NCc2ccccc2)c2ncn(C(C)C)c2n1` have recorded residual activity that is 90% or more?
RESULT: label 0

QUERY: # check: residual activity of `CC(C)(C)n1nc(-c2ccc(Cl)cc2)c2c(N)ncnc21` is greater than or equal to 90%
RESULT: label 1

QUERY: Exam item: decide whether the reported residual activity for `O=C1Cc2c([nH]c3ccc(Br)cc23)-c2ccccc2N1` is at least 90%.
RESULT: label 0

QUERY: // inclusive: residual activity at least 90%? input: `CC(C)[C@H](CO)Nc1nc(Nc2cccc(Cl)c2)c2ncn(C(C)C)c2n1`
RESULT: label 0

QUERY: API: above_or_equal(metric=residual activity, cutoff=90%) for item `O=C1c2ccccc2-c2n[nH]c3cccc1c23`
RESULT: label 0

QUERY: Kindly determine if residual activity recorded for `CN(C)S(=O)(=O)c1ccc2c(c1)/C(=C/c1cc3c([nH]1)CCCC3)C(=O)N2` is above or exactly 90%.
RESULT: label 0

QUERY: Form field: residual activity at least 90%? Entry: `Nc1ncnc2c1cnn2-c1ccccc1`
RESULT: label 1

QUERY: Hello, I need to know if `Cc1ccc(-c2nn(C(C)(C)C)c3ncnc(N)c23)cc1` has measured residual activity not below 90%. Thanks!
RESULT: label 0

QUERY: Does the reported residual activity for `O=C1Nc2ccccc2/C1=C1\Nc2ccccc2\C1=N/O` fall at or above the 90% mark?
RESULT: label 0

---

Would you mind telling me the reported residual activity of each entry?
Tested on: PRKAA1 or PRKAA2 (rat)
PROTOCOL TEXT: radiometric filter-binding kinase assay
EXPERIMENTAL SETUP: compound 10.0 µM; ATP 100 µM; accession and sequence are those of the human protein

SMILES INPUT	residual activity
CN(C)S(=O)(=O)c1ccc2c(c1)/C(=C/c1cc3c([nH]1)CCCC3)C(=O)N2	14%

State the recorded residual activity for every item in the following list.
1. O=C1Cc2c([nH]c3ccc([N+](=O)[O-])cc23)-c2ccccc2N1
2. O=C(O[C@@H]1Cc2c(O)cc(O)cc2O[C@@H]1c1cc(O)c(O)c(O)c1)c1cc(O)c(O)c(O)c1

RESULT:
["36%", "101%"]

Please state residual activity for every compound in the list that follows.
1. O=C1c2ccccc2-c2n[nH]c3cccc1c23
2. CC(C)[C@H](CO)Nc1nc(Nc2cccc(Cl)c2)c2ncn(C(C)C)c2n1
3. O=C1Cc2c([nH]c3ccc(Br)cc23)-c2ccccc2N1
4. Nc1ncnc2c1cnn2-c1ccccc1
5. CC[C@@H](CO)Nc1nc(NCc2ccccc2)c2ncn(C(C)C)c2n1
6. Cc1ccc(-c2nn(C(C)(C)C)c3ncnc(N)c23)cc1

RESULT:
26%
59%
72%
94%
95%
93%

Look up residual activity for the entries below, preserving their order.
1. CC(C)(C)n1nc(-c2ccc(Cl)cc2)c2c(N)ncnc21
2. O=C1Nc2ccccc2/C1=C1\Nc2ccccc2\C1=N/O
3. COC(=O)[C@@]1(OC)C[C@@H]2O[C@]1(C)n1c3ccccc3c3c4c(c5c6ccccc6n2c5c31)C(=O)N(C)C4

RESULT:
["84%", "6%", "90%"]
